Values were extracted from patent US20230265151A1.

study system: hGLP-1R (Homo sapiens, UniProt P43220)
run description: cell-based or functional assay
readout: cAMP EC50 (nM)
Give a bare numeral; the unit nM is implied.

Use these answered entries as a reference point.
[[record]]
binder = "YXEGTXTSDYXIXLDXKAQXEFIXXLIKGGPSSGAPPPS (Y-Aib-EGT-αMeF(2F)-TSDY-Aib-I-αMeL-LD-Orn-K((2-[2-(2-Amino-ethoxy)-ethoxy]-acetyl)2-(γ-Glu)-CO-(CH2)10-CH3)AQ-Aib-EFI-(D-Glu)-αMeY-LIK((2-[2-(2-Amino-ethoxy)-ethoxy]-acetyl)2-(γ-Glu)-CO-(CH2)10-CH3)GGPSSGAPPPS-NH2) [Example 301]"
measured_result = 0.175

[[record]]
binder = "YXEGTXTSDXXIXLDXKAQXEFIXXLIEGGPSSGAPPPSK (Y-Aib-EGT-αMeF(2F)-TSD-4Pal-Aib-I-αMeL-LD-Orn-K((2-[2-(2-Amino-ethoxy)-ethoxy]-acetyl)2-(γ-Glu)-CO-(CH2)12-CO2H)AQ-Aib-EFI-(D-Glu)-αMeY-LIEGGPSSGAPPPSK((2-[2-(2-Amino-ethoxy)-ethoxy]-acetyl)2-(γ-Glu)-CO-(CH2)12-CO2H)-NH2) [Example 359]"
measured_result = 1.18


Shifting focus to the binder that follows.
# input binder: YXEGTXTSDXXIXLDXKAQXXFIXXLIEGGPSSGAPPPSK (Y-Aib-EGT-αMeF(2F)-TSD-4Pal-Aib-I-αMeL-LD-Orn-K((2-[2-(2-Amino-ethoxy)-ethoxy]-acetyl)2-(γ-Glu)-CO-(CH2)10-CH3)AQ-Aib-4Pal-FI-(D-Glu)-αMeY-LIEGGPSSGAPPPSK((2-[2-(2-Amino-ethoxy)-ethoxyl-acetyl)2-(γ-Glu)-CO-(CH2)10-CH3)-NH2) [Example 420] ; wanted: its cAMP EC50
0.123
